Attribution: ChEMBL document CHEMBL3600334

System: HT-22
protocol: Neuroprotective activity in mouse HT22 cells assessed as protection against glutamate-induced change in cell morphology at 1 to 30 uM pretreated 30 mins before glutamate challenge measured after 24 hrs by MTT assay
Assay type: functional, cell-based
experimental.setup: in the assay text read “by photomicroscopy” for “by MTT assay”
Active and inactive are the calls of the source. No cut-off for these calls is given here.
measured.quantity: Activity

Field: example entries. Status: answers known.
Enquiry: Given the molecule COc1cc([C@H]2O[C@@H](c3ccc(O)c(OC)c3)[C@@H](C)[C@@H]2C)ccc1O , what is its reported Activity?
Return: Active

Enquiry: Another molecule to check: COc1cc([C@H]2O[C@@H](c3ccc(O)c(OC)c3)[C@H](C)[C@@H]2C)ccc1O
Return: Active

Enquiry: Would you mind doing C/C=C/c1ccc2oc(-c3ccc(O)cc3)c(C)c2c1 as well?
Return: Active

Enquiry: Entry to check: C/C=C/c1cc(OC)c2c(c1)[C@@H](C)[C@H](c1ccc(O)c(OC)c1)O2
Return: Active

Enquiry: Param item: C/C=C/c1cc(OC)c2oc(-c3ccc(O)c(OC)c3)c(C)c2c1
Return: Active

---
Enquiry: Which Activity is listed for C/C=C/c1cc(OC)c2oc(-c3ccc(O)cc3)c(C)c2c1 ?
Return: Active
